Reference source: PubChem BioAssay AID624256

# Experiment description: HoxA9-arrested leukemia cell differentiation promoters – flow cytometry, MLPCN library, primary screen (AID 624256);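 on GFP+ MAC1+ double positive: cells exposed to compound for four days before flow analysis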
# Reported conditions: ER-HoxA9 myeloid progenitors, lysozyme-GFP differentiation, at 10 µM; measured here: differentiation confirmed by MAC1 staining, stronger effect = higher value
Out of some 360,000 compounds screened, about 3,700 (1%) were called active. Inconclusive results (about 2%) are left out. The sample as a whole holds a higher share of actives than the screen did.

{"Compound": "CN(C(=O)c1cccc([N+](=O)[O-])c1)c1ccccc1C(=O)NCc1ccccc1", "GFP+ MAC1+ double positive, %": 2.5}
{"Compound": "CCOc1cc(-c2nc3cc(C)ccn3c2NCC2CCCO2)ccc1O (stereo unspecified)", "GFP+ MAC1+ double positive, %": 0.6}
{"Compound": "COc1cccc(/C=C2\\SC(=S)N(CCCC(=O)N3CCOCC3)C2=O)c1", "GFP+ MAC1+ double positive, %": 2.7}
{"Compound": "O=C(Nc1ccc2sc3ccccc3c(=O)c2c1)c1ccccc1Cl", "GFP+ MAC1+ double positive, %": 0.3}
{"Compound": "CCOC(=O)c1ccc(-c2ccc3ncnc(N(C)Cc4sccc4C)c3c2)o1", "GFP+ MAC1+ double positive, %": 2}
{"Compound": "Nc1nc2ncccn2c1-c1ccccc1", "GFP+ MAC1+ double positive, %": 2.1}
{"Compound": "O=[N+]([O-])c1ccccc1Nc1ccc(O)cc1", "GFP+ MAC1+ double positive, %": 0.4}
{"Compound": "OCCC#Cc1ccc(N2C(c3ccsc3)=Cc3ccc(F)cc3C2c2c[nH]c3ccccc23)cc1 (stereo unspecified)", "GFP+ MAC1+ double positive, %": 2}
{"Compound": "CC1(C(=O)NCc2ccccc2)CN(S(C)(=O)=O)CC(=O)N1CC(F)(F)F (stereo unspecified)", "GFP+ MAC1+ double positive, %": 1.4}
{"Compound": "Cc1ccc(Nc2ccccc2N)cc1", "GFP+ MAC1+ double positive, %": 0.6}
{"Compound": "Cn1cnc(S(=O)(=O)N2C[C@@H](O)COC[C@@H]3O[C@H](CC(=O)NC4CCC4)CC[C@H]32)c1", "GFP+ MAC1+ double positive, %": 3.2}

====

# Experiment description: HoxA9-arrested leukemia cell differentiation promoters – flow cytometry, MLPCN library, primary screen (AID 624256)
# Reported conditions: ER-HoxA9 myeloid progenitors, lysozyme-GFP differentiation, at 10 µM
Hit rate of the full screen: of about 360,000 compounds, about 3,700 (1%) were called active. Not shown: some 2% with an inconclusive outcome.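 Rule for the calls: active = normalized GFP-positive differentiation at or above the plate's own cutoff, the solvent-only control mean plus 3 SD; inconclusive = no clear call, values can overlap the other calls; inactive = the rest.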 What follows is part of a selection rich in actives, with near analogues and random picks from the rest.
Possible outcomes: class 1 (active), class 0 (inactive)

{"Compound": "CC1=C(C(=O)N(C(C)C)C(C)C)CC(CC(=O)NCC2CCCCC2)C(=O)N1Cc1ccccc1 (stereo unspecified)", "Discrete label": "class 0"}
{"Compound": "Cc1cc(C)n(C(=O)c2ccc(C)c(S(=O)(=O)N3CCOCC3)c2)n1", "Discrete label": "class 1"}
{"Compound": "COc1ccc(C2CC(c3cccc(OC)c3)=NN2c2ccc(S(N)(=O)=O)cc2)cc1 (stereo unspecified)", "Discrete label": "class 1"}
{"Compound": "COc1ccc(N2c3ccccc3CN(Cc3ccccc3)[C@@H](C)[C@H]2Cc2ccc(-c3ccccc3)cc2)cc1", "Discrete label": "class 0"}
{"Compound": "O=C(/C=C/c1ccc(OCc2c(F)cccc2Cl)cc1)N1CCOCC1", "Discrete label": "class 1"}
{"Compound": "O=C(COC(=O)c1ccccc1O)NCc1ccco1", "Discrete label": "class 0"}
{"Compound": "Cc1cccc(C)c1NC(=O)COC(=O)c1ccccc1O", "Discrete label": "class 0"}
{"Compound": "O=C(c1ccc(C(F)(F)F)cc1)N1CCC(=O)N([C@H](COCc2ccccc2)Cc2ccccc2)CC1", "Discrete label": "class 0"}
{"Compound": "Cc1cc(=O)oc2ccc(OCC(=O)O)cc12", "Discrete label": "class 0"}
{"Compound": "Cc1ccc(Oc2nc3ccccc3n3c(C)nnc23)cc1", "Discrete label": "class 0"}
{"Compound": "Cc1ccc(C(=O)NC2CCCC(C)C2C)cc1S(=O)(=O)N1CCCCC1 (stereo unspecified)", "Discrete label": "class 1"}
{"Compound": "CCC(c1nc2ccccc2[nH]1)n1c(=O)c(-c2cccs2)nc2ccccc21 (stereo unspecified)", "Discrete label": "class 0"}
{"Compound": "Cc1ccc(C(=O)OCC(=O)N2CCCCCC2)cc1S(=O)(=O)N1CCOCC1", "Discrete label": "class 0"}
{"Compound": "C#CCNC(=O)C[C@@H]1C[C@@]2(C(=O)OCC)CCCC=C2N(Cc2ccco2)C1=O", "Discrete label": "class 0"}
{"Compound": "CN(C)CCCNC(=O)/C=C/c1ccc(OCc2c(F)cccc2Cl)cc1", "Discrete label": "class 0"}
{"Compound": "Clc1cccc(Cc2c(-c3cccc(Cl)c3)nc3ccc(Cl)cn23)c1", "Discrete label": "class 0"}
{"Compound": "Fc1cccc(Cl)c1COc1ccc(-c2nnco2)cc1", "Discrete label": "class 0"}
{"Compound": "Oc1ccccc1C1=NN(c2ccccc2)C(c2ccccc2)C1 (stereo unspecified)", "Discrete label": "class 0"}
{"Compound": "CC(C)CC(COCc1ccc(Cl)cc1)N1CCN(C(=O)c2ccc(C(F)(F)F)cc2)CCC1=O (stereo unspecified)", "Discrete label": "class 1"}
{"Compound": "Cc1ccc(C2CC(c3cccc(NS(C)(=O)=O)c3)=NN2S(C)(=O)=O)cc1 (stereo unspecified)", "Discrete label": "class 0"}
{"Compound": "CCOC(=O)c1c(-c2ccccc2)oc2ccc(OCC(=O)NN)cc12", "Discrete label": "class 1"}

====

# Experiment description: HoxA9-arrested leukemia cell differentiation promoters – flow cytometry, MLPCN library, primary screen (AID 624256)
# Reported conditions: ER-HoxA9 myeloid progenitors, lysozyme-GFP differentiation, at 10 µM
Screen size: about 360,000 compounds; about 3,700 (1%) were called active. Another 2% or so got no clear call; they are omitted.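 Rule for the calls: active = normalized GFP-positive differentiation at or above the plate's own cutoff, the solvent-only control mean plus 3 SD; inconclusive = no clear call, values can overlap the other calls; inactive = the rest.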 This excerpt belongs to a sample that is enriched for actives.
Possible outcomes: T for active, F for inactive

{"Compound": "COC(=O)[C@]12CCCCC=C1N(CCC1=CCCCC1)C(=O)[C@H](CC(=O)NCC1CCCCC1)C2", "Discrete label": "F"}
{"Compound": "Cc1ccc(-n2c(SCC(=O)Nc3ncc(Cl)cc3Cl)nc3ccccc32)cc1", "Discrete label": "T"}
{"Compound": "OC(c1ccc(Cl)c(F)c1)c1ncc(-c2ccccc2Cl)[nH]1 (stereo unspecified)", "Discrete label": "F"}
{"Compound": "N#CC1=C(N)Oc2cc(N)ccc2C1c1ccccc1 (stereo unspecified)", "Discrete label": "F"}
{"Compound": "N#CC1=C(N)Oc2c(sc3ccccc23)C1c1ccco1 (stereo unspecified)", "Discrete label": "T"}
{"Compound": "CCCCCn1nnnc1-c1nc2cc3ccccc3cc2[nH]c1=O", "Discrete label": "F"}
{"Compound": "CCOC(=O)[C@]12CCCC=C1N(Cc1cccc3ccccc13)C(=O)[C@H](CC(=O)NCC13CC4CC(CC(C4)C1)C3)C2", "Discrete label": "F"}
{"Compound": "CCCc1nc2ccccc2n1C(C)C(=O)NC(C)(C)C (stereo unspecified)", "Discrete label": "F"}
{"Compound": "CC1(C(=O)OCC(=O)Nc2ncc(Cl)cc2Cl)CC1(Cl)Cl (stereo unspecified)", "Discrete label": "F"}
{"Compound": "Cc1nc2c(OCC(=O)C(C)(C)C)cccn2c1N(C)Cc1cccs1", "Discrete label": "F"}
{"Compound": "CN(C)c1ccc(/C=C2\\NC(=S)N(Cc3ccccc3)C2=O)cc1", "Discrete label": "T"}
{"Compound": "CC1(C)OC(=O)C2=C(C[C@@H](C3CCCC3)O[C@@H]2c2ccc(Cl)cc2)O1", "Discrete label": "F"}
{"Compound": "O=C(Nc1cccc(NC(=O)c2ccccc2[N+](=O)[O-])c1)c1ccccc1Cl", "Discrete label": "F"}
{"Compound": "O=C(Nc1ccc2sc3ccccc3c(=O)c2c1)c1ccccc1Cl", "Discrete label": "T"}
{"Compound": "N#CC1=C(N)Oc2c(ccc3cccnc23)C1c1ccncc1 (stereo unspecified)", "Discrete label": "F"}
{"Compound": "Cc1cc2nc(-c3ccc(Cl)cc3)c(Cc3cccc(F)c3)n2c(C)c1Br", "Discrete label": "F"}
{"Compound": "CN(C)c1ccc(C=C2C(=O)OC3(CCCC3)OC2=O)cc1", "Discrete label": "F"}
{"Compound": "CCOc1ccc(-n2c(SCC(=O)Nc3cc(C(=O)O)ccc3Cl)nc3ccccc3c2=O)cc1", "Discrete label": "F"}
{"Compound": "CC1CN(Cc2ccccc2)C(=S)NC1=O (stereo unspecified)", "Discrete label": "F"}
{"Compound": "COC(=O)[C@@]12C[C@@H](CC(=O)NCCCCc3ccccc3)C(=O)N(CCc3ccc(OC)c(OC)c3)C1=CCC(C)(C)C2", "Discrete label": "F"}
{"Compound": "O=C(Nc1ccc(Cl)cc1)c1csc([C@H]2C[C@H](O)[C@@H](CO)O2)n1", "Discrete label": "F"}
